From: patent US9902714B2

pKd: −log10 of the molar value.
Entries below carry reported pKd on FGFR4 (Homo sapiens (Human), UniProt P22455).
Sequence (P22455 22-802): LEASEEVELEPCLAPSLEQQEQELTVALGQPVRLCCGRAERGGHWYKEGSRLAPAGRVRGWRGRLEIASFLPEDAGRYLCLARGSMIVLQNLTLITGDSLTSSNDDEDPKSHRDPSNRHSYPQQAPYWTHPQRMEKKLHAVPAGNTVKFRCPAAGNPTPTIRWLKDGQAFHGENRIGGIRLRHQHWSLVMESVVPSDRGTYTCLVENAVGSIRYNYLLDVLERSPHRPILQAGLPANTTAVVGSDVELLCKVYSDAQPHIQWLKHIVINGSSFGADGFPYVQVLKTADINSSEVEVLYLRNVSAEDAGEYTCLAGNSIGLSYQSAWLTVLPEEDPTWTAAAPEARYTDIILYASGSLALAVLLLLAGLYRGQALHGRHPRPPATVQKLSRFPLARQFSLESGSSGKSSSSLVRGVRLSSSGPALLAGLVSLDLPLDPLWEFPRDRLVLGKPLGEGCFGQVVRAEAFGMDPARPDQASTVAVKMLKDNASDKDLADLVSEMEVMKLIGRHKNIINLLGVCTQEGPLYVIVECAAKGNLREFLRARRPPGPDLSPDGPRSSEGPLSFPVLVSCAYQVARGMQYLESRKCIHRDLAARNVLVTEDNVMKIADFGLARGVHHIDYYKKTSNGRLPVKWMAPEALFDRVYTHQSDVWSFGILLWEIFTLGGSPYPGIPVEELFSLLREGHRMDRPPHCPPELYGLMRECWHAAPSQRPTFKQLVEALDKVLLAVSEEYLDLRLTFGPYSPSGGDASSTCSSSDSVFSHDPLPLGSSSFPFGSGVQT
parameter: pKd

[
  {
    "smiles-record": "COc1cc(OC)c2c(c1)N(c1ccc3ncc(-c4cnn(C)c4)nc3c1)CCCN(C(C)C)C2",
    "recorded-number": 6.45
  }
]

1 = COc1cc(OC)c2c(c1)N(c1ccc3ncc(-c4cn[nH]c4)nc3c1)CCN(C(C)C)C2
2 = COc1cc(O)c2c(c1)N(c1ccc3ncc(-c4cnn(C)c4)nc3c1)CCN(C(C)C)C2
Prompt: // select label with min value of measured pKd from [ 1 , 2 ] Write down the label of the entry you select.
Response: 2
(2: 5.72, 1: 7.17)
